- target: Human Vitamin D Binding Protein (hDBP) (Homo sapiens)
- Sequence (P02774 17-474): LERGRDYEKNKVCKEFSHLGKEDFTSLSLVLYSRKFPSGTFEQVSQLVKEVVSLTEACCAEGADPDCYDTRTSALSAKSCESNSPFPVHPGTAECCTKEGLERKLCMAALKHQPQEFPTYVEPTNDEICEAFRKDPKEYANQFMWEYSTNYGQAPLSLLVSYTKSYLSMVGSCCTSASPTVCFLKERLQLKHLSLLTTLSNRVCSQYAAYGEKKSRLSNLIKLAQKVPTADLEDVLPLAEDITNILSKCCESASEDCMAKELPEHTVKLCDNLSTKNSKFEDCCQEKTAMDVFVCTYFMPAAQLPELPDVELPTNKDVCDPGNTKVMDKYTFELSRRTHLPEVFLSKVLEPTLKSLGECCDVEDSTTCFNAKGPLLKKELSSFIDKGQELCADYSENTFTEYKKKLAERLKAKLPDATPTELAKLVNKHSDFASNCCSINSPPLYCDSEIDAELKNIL
- experimentalProtocol: Affinity for Human Vitamin D Binding Protein (hDBP), displacement of [3H]1α,25(OH)2D3
- testContext: relative affinity from concentration displacing 50% of [3H]1α,25(OH)2D3, 1α,25(OH)2D3 assigned 100%, 4° C.
measure: hDBP binding % (%)
Output spec: scalar in %, unitless text.

Some solved cases for reference:
{"columns": ["molecule", "target", "measure", "endpointResult"],
 "data": [
  ["CC(C)(O)CCC[C@H]1CC[C@]2(CCC/C(=C\\C=C3C[C@@H](O)C[C@H](O)C3)C2)C1 [(1R,3R)-5-{2-[(2S,5R)-2-(4-Hydroxy-4-methyl-pentyl)-spiro[4.]", "Human Vitamin D Binding Protein (hDBP) (Homo sapiens)", "hDBP binding %", 3],
  ["CC(C)(O)CCC[C@H]1CC[C@@]2(CCC/C(=C/C=C3C[C@@H](O)C[C@H](O)C3)C2)C1", "Human Vitamin D Binding Protein (hDBP) (Homo sapiens)", "hDBP binding %", 0]
]}

Now take the following molecule into account.
The value of hDBP binding % measured for the molecule CC(C)(O)CCC[C@H]1CC[C@]2(CCC/C(=C\C=C3C[C@@H](O)C[C@H](O)C3)C2)C1 [(1R,3R)-5-{2-[(2R,5S)-2-(4-Hydroxy-4-methyl-pentyl)-spiro[4.] turned out to be 0
